- System: SW620 cells (Trop-2 non-expressing)
- measurement.protocol: Cytotoxicity of ADCs (CellTiter-Glo), SW620
- Type: cell-based
- conditions.used: Table 12; SW620 (Trop-2−); 96 hours after treatment
Examples of molecules with documented Ab-IC50 follow.
Form entry: value (mg/L) — number only.

h7E6-N-TG1-vcMMAD: h7E6_N hIgG1 with TG1 tag conjugated with AcLys-vcMMAD (conjugate) VH: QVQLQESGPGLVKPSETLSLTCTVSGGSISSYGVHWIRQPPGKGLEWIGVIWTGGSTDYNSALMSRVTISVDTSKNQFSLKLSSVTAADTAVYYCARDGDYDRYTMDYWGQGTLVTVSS VL: DIVMTQSPDSLAVSLGERATINCRASKSVSTSNYSYMHWYQQKPGQPPKLLIYLASNLESGVPDRFSGSGSGTDFTLTISSLQAEDVAVYYCQHSRELPYTFGQGTKLEIK ... 11.150
h7E6-WT-TG1-vcMMAD: h7E6-WT hIgG1 with TG1 tag conjugated with AcLys-vcMMAD (conjugate) VH: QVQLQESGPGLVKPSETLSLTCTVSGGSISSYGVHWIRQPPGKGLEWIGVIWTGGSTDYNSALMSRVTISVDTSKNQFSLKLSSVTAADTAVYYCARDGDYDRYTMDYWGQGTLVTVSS VL: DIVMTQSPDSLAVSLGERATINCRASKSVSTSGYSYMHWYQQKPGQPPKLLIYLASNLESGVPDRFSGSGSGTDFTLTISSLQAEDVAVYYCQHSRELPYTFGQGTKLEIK ... 10.330

Then there is this molecule:
Look up and report measured Ab-IC50 for this entry: h7E6-L-TG1-vcMMAD: h7E6_L hIgG1 with TG1 tag conjugated with AcLys-vcMMAD (conjugate) VH: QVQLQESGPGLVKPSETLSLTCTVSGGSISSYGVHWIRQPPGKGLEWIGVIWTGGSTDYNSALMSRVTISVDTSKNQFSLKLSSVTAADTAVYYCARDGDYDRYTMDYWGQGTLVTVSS VL: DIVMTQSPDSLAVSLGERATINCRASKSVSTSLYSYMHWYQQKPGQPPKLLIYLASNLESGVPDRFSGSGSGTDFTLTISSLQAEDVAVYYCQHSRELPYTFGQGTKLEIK
8.535
